Measured CC50 at 120 h accompanies every entry in the list below.
# TEST: Cytotoxicity against human MT4 cells assessed as reduction in cell viability treated for 5 days by MTT assay
# Type: toxicity, cell-based
# APPLIED CONDITIONS: time 5 day
Write down the numeric answer in µM and omit the unit.

Previously resolved entries follow.
Cc1cc(/C=C/C#N)cc(C)c1Cc1nc(NC2CCN(Cc3ccc(S(N)(=O)=O)cc3)CC2)ncc1-c1cnc(N)nc1 :: 2.74
Cc1cc(/C=C/C#N)cc(C)c1Oc1nc(NC2CCN(Cc3ccc(C(N)=O)cc3)CC2)ncc1-c1ccccc1O :: 11.2
Cc1cc(/C=C/C#N)cc(C)c1Oc1nc(NC2CCN(Cc3ccc(S(N)(=O)=O)cc3)CC2)ncc1-c1ccccc1N :: 5.49

## Input Give me measured CC50 at 120 h, please, for this compound: Cc1cc(/C=C/C#N)cc(C)c1Oc1nc(NC2CCN(Cc3ccc(S(C)(=O)=O)cc3)CC2)ncc1-c1cccc(F)c1
## Output 6.65

## Input Give me measured CC50 at 120 h, please, for this compound: Cc1cc(/C=C/C#N)cc(C)c1Oc1nc(NC2CCN(Cc3ccc(C(N)=O)cc3)CC2)ncc1-c1cccc(F)c1
## Output 11.3

## Input Give me measured CC50 at 120 h, please, for this compound: Cc1cc(/C=C/C#N)cc(C)c1Cc1nc(NC2CCN(Cc3ccc(C(N)=O)cc3)CC2)ncc1-c1cncnc1
## Output 22.8

## Input Give me measured CC50 at 120 h, please, for this compound: Cc1cc(/C=C/C#N)cc(C)c1Oc1nc(NC2CCN(Cc3ccc(C(N)=O)cc3)CC2)ncc1-c1ccc(O)cc1
## Output 21.3

## Input Give me measured CC50 at 120 h, please, for this compound: Cc1cc(/C=C/C#N)cc(C)c1Oc1nc(NC2CCN(Cc3ccc(S(C)(=O)=O)cc3)CC2)ncc1-c1ccc(F)cc1
## Output 4.34

----------
# TEST: Selectivity index, ratio of CC50 for human MT4 cells to EC50 for NNRTI-resistant HIV-1 RES056 infected in human MT4 cells
# Format: toxicity, cell-based
# APPLIED CONDITIONS: read-out: Selectivity Index
Range-based classes on measured selectivity ratio: bin A = under 90, bin B = from 90 up to 200, bin C = 200 and over

Cc1cc(/C=C/C#N)cc(C)c1Oc1nc(NC2CCN(Cc3ccc(S(N)(=O)=O)cc3)CC2)ncc1-c1cccc(F)c1 :: bin B
Cc1cc(/C=C/C#N)cc(C)c1Oc1nc(NC2CCN(Cc3ccc(S(C)(=O)=O)cc3)CC2)ncc1-c1ccccc1N :: bin A
Cc1cc(/C=C/C#N)cc(C)c1Cc1nc(NC2CCN(Cc3ccc(C(N)=O)cc3)CC2)ncc1-c1cncnc1 :: bin C

## Input Could you tell me which band Cc1cc(/C=C/C#N)cc(C)c1Oc1nc(NC2CCN(Cc3ccc(S(C)(=O)=O)cc3)CC2)ncc1-c1cccc(N)c1 belongs to?
## Output bin A

## Input Could you tell me which band Cc1cc(/C=C/C#N)cc(C)c1Oc1nc(NC2CCN(Cc3ccc(C(N)=O)cc3)CC2)ncc1-c1ccc(N)cc1 belongs to?
## Output bin C

----------
Measured pEC50 accompanies every entry in the list below.
# Test system: Human immunodeficiency virus 1
# TEST: Antiviral activity against HIV-1 harboring K103N mutant infected in human MT4 cells assessed as virus-induced cytopathicity treated for 5 days by MTT assay
# Format: functional, organism-based
# APPLIED CONDITIONS: Human immunodeficiency virus 1, MT4, 120 h; read-out: EC50
Scale explanation: pEC50 corresponds to minus log10 of a concentration expressed in moles per litre.

Previously resolved entries follow.
Cc1cc(/C=C/C#N)cc(C)c1Cc1nc(NC2CCN(Cc3ccc(S(C)(=O)=O)cc3)CC2)ncc1-c1cncnc1 :: 8.44
Cc1cc(/C=C/C#N)cc(C)c1Oc1nc(NC2CCN(Cc3ccc(C(N)=O)cc3)CC2)ncc1-c1ccc2c(c1)OCO2 :: 8.25
Cc1cc(/C=C/C#N)cc(C)c1Oc1nc(NC2CCN(Cc3ccc(S(N)(=O)=O)cc3)CC2)ncc1-c1cccc(O)c1 :: 8.25
Cc1cc(/C=C/C#N)cc(C)c1Oc1nc(NC2CCN(Cc3ccc(C(N)=O)cc3)CC2)ncc1-c1ccc(N)cc1 :: 8.45
Cc1cc(/C=C/C#N)cc(C)c1Oc1nc(NC2CCN(Cc3ccc(S(N)(=O)=O)cc3)CC2)ncc1-c1ccc(N)cc1 :: 8.41

## Input Give me measured pEC50, please, for this compound: Cc1cc(/C=C/C#N)cc(C)c1Oc1nc(NC2CCN(Cc3ccc(S(N)(=O)=O)cc3)CC2)ncc1-c1ccc2c(c1)OCO2
## Output 8.20

## Input Give me measured pEC50, please, for this compound: Cc1cc(/C=C/C#N)cc(C)c1Cc1nc(NC2CCN(Cc3ccc(C(N)=O)cc3)CC2)ncc1-c1cncnc1
## Output 8.32

## Input Give me measured pEC50, please, for this compound: CC(=O)c1ccc(-c2cnc(NC3CCN(Cc4ccc(S(N)(=O)=O)cc4)CC3)nc2Oc2c(C)cc(/C=C/C#N)cc2C)cc1
## Output 8.29

----------
# Tested on: Human immunodeficiency virus 1
# TEST: Antiviral activity against HIV-1 harboring Y181C mutant infected in human MT4 cells assessed as virus-induced cytopathicity treated for 5 days by MTT assay
# Format: functional, organism-based
# APPLIED CONDITIONS: Human immunodeficiency virus 1, MT4, 120 h; read-out: EC50
Measured EC50 accompanies every entry in the list below.
Write down the numeric answer in nM and omit the unit.

Previously resolved entries follow.
Cc1cc(/C=C/C#N)cc(C)c1Oc1nc(NC2CCN(Cc3ccc(S(N)(=O)=O)cc3)CC2)ncc1-c1ccc(O)cc1 :: 7.77
Cc1cc(/C=C/C#N)cc(C)c1Oc1nc(NC2CCN(Cc3ccc(S(N)(=O)=O)cc3)CC2)ncc1-c1ccc2c(c1)OCO2 :: 10.7
Cc1cc(/C=C/C#N)cc(C)c1Cc1nc(NC2CCN(Cc3ccc(C(N)=O)cc3)CC2)ncc1-c1cncnc1 :: 5.88

## Input Give me measured EC50, please, for this compound: CC(=O)c1ccc(-c2cnc(NC3CCN(Cc4ccc(S(N)(=O)=O)cc4)CC3)nc2Oc2c(C)cc(/C=C/C#N)cc2C)cc1
## Output 10.2

----------
# System: Human immunodeficiency virus 1
# TEST: Antiviral activity against NNRTI-resistant HIV-1 RES056 infected in human MT4 cells assessed as virus-induced cytopathicity treated for 5 days by MTT assay
# Assay type: functional, organism-based
# APPLIED CONDITIONS: Human immunodeficiency virus 1, RES056, MT4, 120 h
ENDPOINT LABEL: pEC50
Scale explanation: pEC50 corresponds to minus log10 of a concentration expressed in moles per litre.

Cc1cc(/C=C/C#N)cc(C)c1Oc1nc(NC2CCN(Cc3ccc(S(N)(=O)=O)cc3)CC2)ncc1-c1ccccc1F :: 7.00

## Input Answer with pEC50 of Cc1cc(/C=C/C#N)cc(C)c1Oc1nc(NC2CCN(Cc3ccc(C(N)=O)cc3)CC2)ncc1-c1ccccc1O measured for Human immunodeficiency virus 1.
## Output 6.91

----------
# TEST: Selectivity index, ratio of CC50 for human MT4 cells to EC50 for NNRTI-resistant HIV-1 RES056 infected in human MT4 cells
# Format: toxicity, cell-based
# APPLIED CONDITIONS: read-out: Selectivity Index
selectivity ratio below 100 gives Not met; selectivity ratio at or above it gives Met.

Study these solved cases before continuing.
Cc1cc(/C=C/C#N)cc(C)c1Oc1nc(NC2CCN(Cc3ccc(C(N)=O)cc3)CC2)ncc1-c1ccccc1O :: Not met
Cc1cc(/C=C/C#N)cc(C)c1Oc1nc(NC2CCN(Cc3ccc(S(C)(=O)=O)cc3)CC2)ncc1-c1ccc(N)cc1 :: Met
Cc1cc(/C=C/C#N)cc(C)c1Oc1nc(NC2CCN(Cc3ccc(S(C)(=O)=O)cc3)CC2)ncc1-c1cccc(F)c1 :: Not met
Cc1cc(/C=C/C#N)cc(C)c1Oc1nc(NC2CCN(Cc3ccc(S(N)(=O)=O)cc3)CC2)ncc1-c1cccc(O)c1 :: Met
Cc1cc(/C=C/C#N)cc(C)c1Oc1nc(NC2CCN(Cc3ccc(S(C)(=O)=O)cc3)CC2)ncc1-c1cccc(O)c1 :: Not met

## Input Is it the case that Cc1cc(/C=C/C#N)cc(C)c1Cc1nc(NC2CCN(Cc3ccc(S(N)(=O)=O)cc3)CC2)ncc1-c1cncnc1 has selectivity ratio reaching or exceeding 100?
## Output Met

## Input Is it the case that Cc1cc(/C=C/C#N)cc(C)c1Oc1nc(NC2CCN(Cc3ccc(C(N)=O)cc3)CC2)ncc1-c1cccc(N)c1 has selectivity ratio reaching or exceeding 100?
## Output Met

## Input Is it the case that Cc1cc(/C=C/C#N)cc(C)c1Oc1nc(NC2CCN(Cc3ccc(S(N)(=O)=O)cc3)CC2)ncc1-c1ccc(N)cc1 has selectivity ratio reaching or exceeding 100?
## Output Met
